Measured pKd values are reported for all entries that follow.
# Measured target: DN-III quality control recombinant protein (produced by Fapon Biotech InC.) (dengue virus)
# Test details: BLI, AMC sensor, antibody captured
pKd: −log10 of the molar value.
Readout name: pKd

Binder	Result value
WT 1-4 (antibody, V domains shown) VH: EVQLQQSGTELVRPGALVKLSCKASGFNIKEYYLHWVKQRPRQGLEWIGWIDPDNGKTLYDPKVQDKASITSDTSTNTAYLQLRSLTSEDTAVYYCVTAYYRFVYWGQGTLVTVSA VL: QIVLTQSPAIMSAFPGERVTMTCSASSSVKYMYWHQQKPGSSPRLLIYETSNLASGFPVRFSGSGSGTSYSLTISRDEAMDAATYYCQQQSSFPRTFGGGTKLEIKR	7.92
Mutation 1-38 (antibody, V domains shown) VH: EVQLQQSGTELVRPGALVKLSCKASGFNIKDYYLHWVKQRPRQGLEWIGWIDPENGKTLYDPKFQDKASITSDTSTNTAYLQLRSLTSEDTAVYYCVTAYFRFVYWGQGTLVTVSA VL: QIVLTQSPAIMSAFPGERVTMTCSASSSVRYMYWHQQKPGSSPRLLIYDTSNIASGVPVRFSGSGSGTSYSLTISRDEAMDAATYYCQQWSSYPRTFGGGTKLEIKR	9.44
